All figures here come from paper PMC12647017.

Target: human IgG conjugated with fluorescein isothiocyanate (IgG-FITC) (human)
Experiment: MST; hIgG-FITC (Sigma F9636) fixed at 25 nM; 16 samples of E6_M2_T2 from 695 nM in 1:2 serial dilution; PBS, 0.05% Tween-20, pH 7.4; 25 C; fit models Kd and Hill
Recorded metric: EC50 (nM)
Output spec: scalar in nM, unitless text.

Quick note, EC50 for E6_M2_T2 (head-to-tail dimer of E6_M2) (designed binder) CSGKLPPGWEERKTRRFKLGRTYYYNHHILSKTSQWEHPRGSSSGKLPPGWEERKTRRFKLGRTYYYNHHILSKTSQWEHPRGSS landed at 157
